target: T1, cynomolgus FOLR1 protein, His Tag (ACRO F01-C52H8) (cynomolgus, UniProt A0A2K5U044 25-233); assay: ELISA, coated cyno FOLR1-His, supernatant 1x
T1 construct: Bought protein coated on ELISA plates; also called Cynomolgus/Rhesus macaque FOLR1, Protein, His Tag; not shown: His tag
T1 sequence (A0A2K5U044 entry or part of it): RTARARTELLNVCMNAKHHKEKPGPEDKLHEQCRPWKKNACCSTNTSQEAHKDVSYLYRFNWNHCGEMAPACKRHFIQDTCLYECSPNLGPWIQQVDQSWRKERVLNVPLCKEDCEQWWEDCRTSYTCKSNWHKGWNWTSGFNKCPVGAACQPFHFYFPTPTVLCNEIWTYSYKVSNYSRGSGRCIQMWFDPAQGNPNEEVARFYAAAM
quantity: OD450 (OD450)
One number for each entry, in OD450.

Guide cases for OD450, answers given:
binder	experimental.result
F48 (antibody, V domains shown, Tested as full-length IgG with an IgG1 Fc from HEK293, as supernatant or purified; also called clone F48; anti-FOLR1 antibody F48) VH: EVQLLESGGGVVQPGRSLRLSCAASGFTFSSYGMHWVRQAPGKGLEWVAVISYDGSNKYYADSVKGRFTISRDNSKNTLYLHMNSLRAEDTAVYYCARPRAYYGAYGSSFDYWGQGTQVTVSS VL: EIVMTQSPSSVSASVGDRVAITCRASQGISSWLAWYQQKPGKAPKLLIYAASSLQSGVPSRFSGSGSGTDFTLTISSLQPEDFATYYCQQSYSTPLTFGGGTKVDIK	1.15
F131 (antibody, V domains shown, also called clone F131; F131 mAb) VH: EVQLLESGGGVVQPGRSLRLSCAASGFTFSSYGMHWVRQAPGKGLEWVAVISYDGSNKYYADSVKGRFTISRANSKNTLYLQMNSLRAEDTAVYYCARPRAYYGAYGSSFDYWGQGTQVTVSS VL: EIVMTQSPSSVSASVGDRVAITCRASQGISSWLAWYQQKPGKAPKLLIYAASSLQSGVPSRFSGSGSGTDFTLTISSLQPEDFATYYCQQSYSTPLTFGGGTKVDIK	1.2
F26 (antibody, V domains shown, Tested as full-length IgG with an IgG1 Fc from HEK293, as supernatant or purified; also called clone F26; anti-FOLR1 antibody F26) VH: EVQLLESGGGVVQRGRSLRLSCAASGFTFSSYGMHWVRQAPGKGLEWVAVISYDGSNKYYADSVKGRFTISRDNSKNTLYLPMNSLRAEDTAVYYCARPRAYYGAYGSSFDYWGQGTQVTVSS VL: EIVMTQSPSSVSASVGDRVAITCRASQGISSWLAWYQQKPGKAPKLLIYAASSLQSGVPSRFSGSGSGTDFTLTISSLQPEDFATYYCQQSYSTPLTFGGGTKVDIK	1.24
F138 (antibody, V domains shown, Tested as full-length IgG with an IgG1 Fc, HEK293 supernatant; also called clone F138; anti-FOLR1 antibody F138) VH: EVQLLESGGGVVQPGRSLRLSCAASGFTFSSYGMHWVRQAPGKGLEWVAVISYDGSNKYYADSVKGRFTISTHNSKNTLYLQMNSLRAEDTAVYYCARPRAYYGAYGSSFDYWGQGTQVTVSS VL: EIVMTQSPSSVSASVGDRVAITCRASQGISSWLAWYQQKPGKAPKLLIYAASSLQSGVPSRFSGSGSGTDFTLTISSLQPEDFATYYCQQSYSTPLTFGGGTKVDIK	1.14

Then this binder:
query: Name the recorded OD450 for F1 (antibody, V domains shown, also called clone F1; anti-FOLR1 antibody F1) VH: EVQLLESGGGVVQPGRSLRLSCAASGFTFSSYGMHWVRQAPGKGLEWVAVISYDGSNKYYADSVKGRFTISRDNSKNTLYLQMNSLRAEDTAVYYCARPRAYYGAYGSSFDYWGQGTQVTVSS VL: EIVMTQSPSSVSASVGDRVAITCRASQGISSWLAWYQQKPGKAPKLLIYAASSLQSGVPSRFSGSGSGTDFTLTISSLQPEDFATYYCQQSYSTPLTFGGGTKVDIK .
result: 1.38
